Target: UniProt P04150
Sequence (P04150 whole entry): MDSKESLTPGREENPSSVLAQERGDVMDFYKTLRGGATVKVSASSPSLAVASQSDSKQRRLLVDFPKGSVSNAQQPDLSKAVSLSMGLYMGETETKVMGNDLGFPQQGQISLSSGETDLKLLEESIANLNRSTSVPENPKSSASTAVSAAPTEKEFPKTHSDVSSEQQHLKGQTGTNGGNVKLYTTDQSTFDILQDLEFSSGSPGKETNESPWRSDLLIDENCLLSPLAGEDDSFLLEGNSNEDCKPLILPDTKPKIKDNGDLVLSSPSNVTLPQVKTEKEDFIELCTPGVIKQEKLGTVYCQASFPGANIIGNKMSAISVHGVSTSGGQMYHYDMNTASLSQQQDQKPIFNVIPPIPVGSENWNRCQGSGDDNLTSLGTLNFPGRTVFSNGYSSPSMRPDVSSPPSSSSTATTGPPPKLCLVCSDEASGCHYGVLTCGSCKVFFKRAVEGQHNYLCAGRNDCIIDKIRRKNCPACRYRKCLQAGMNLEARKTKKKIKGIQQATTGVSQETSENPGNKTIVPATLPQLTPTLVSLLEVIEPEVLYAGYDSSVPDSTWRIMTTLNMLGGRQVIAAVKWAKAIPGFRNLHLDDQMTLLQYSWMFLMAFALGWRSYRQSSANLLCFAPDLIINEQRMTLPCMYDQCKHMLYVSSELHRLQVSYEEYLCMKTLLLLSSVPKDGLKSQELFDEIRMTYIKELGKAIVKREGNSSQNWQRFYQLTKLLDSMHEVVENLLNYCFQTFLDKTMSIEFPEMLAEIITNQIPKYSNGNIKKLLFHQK
Assay: Compound was tested for inhibitory activity towards human glucocorticoid receptor
pIC50: −log10 of the molar value.

{"columns": ["Smiles code", "pIC50"],
 "data": [
  ["COc1ccc(C[C@H](O)[C@H]2CCCC3=Cc4c(cnn4-c4ccc(F)cc4)C[C@@]32C)cc1", 8.20],
  ["C[C@]12Cc3cnn(-c4ccc(F)cc4)c3C=C1CCC[C@@H]2[C@@H](O)c1ccc(Cl)cc1", 8.05],
  ["C[C@]12Cc3cnn(-c4ccc(F)cc4)c3C=C1CCC[C@@H]2[C@@H](O)c1cccc(O)c1", 7.60],
  ["C[C@H](O)[C@H]1CCCC2=Cc3c(cnn3-c3ccc(F)cc3)C[C@@]21C", 8.06],
  ["COc1cc([C@H](O)[C@H]2CCCC3=Cc4c(cnn4-c4ccc(F)cc4)C[C@@]32C)cc(F)c1F", 8.72],
  ["C=CC[C@H](O)[C@H]1CCCC2=Cc3c(cnn3-c3ccc(F)cc3)C[C@@]21C", 8.41],
  ["COc1cc([C@H](O)[C@H]2CCCC3=Cc4c(cnn4-c4ccc(F)cc4)C[C@@]32C)ccc1F", 8.10],
  ["Cc1cc([C@H](O)[C@H]2CCCC3=Cc4c(cnn4-c4ccc(F)cc4)C[C@@]32C)ccc1F", 8.17]
]}

---

Target: UniProt:P04150
Sequence (P04150 whole entry): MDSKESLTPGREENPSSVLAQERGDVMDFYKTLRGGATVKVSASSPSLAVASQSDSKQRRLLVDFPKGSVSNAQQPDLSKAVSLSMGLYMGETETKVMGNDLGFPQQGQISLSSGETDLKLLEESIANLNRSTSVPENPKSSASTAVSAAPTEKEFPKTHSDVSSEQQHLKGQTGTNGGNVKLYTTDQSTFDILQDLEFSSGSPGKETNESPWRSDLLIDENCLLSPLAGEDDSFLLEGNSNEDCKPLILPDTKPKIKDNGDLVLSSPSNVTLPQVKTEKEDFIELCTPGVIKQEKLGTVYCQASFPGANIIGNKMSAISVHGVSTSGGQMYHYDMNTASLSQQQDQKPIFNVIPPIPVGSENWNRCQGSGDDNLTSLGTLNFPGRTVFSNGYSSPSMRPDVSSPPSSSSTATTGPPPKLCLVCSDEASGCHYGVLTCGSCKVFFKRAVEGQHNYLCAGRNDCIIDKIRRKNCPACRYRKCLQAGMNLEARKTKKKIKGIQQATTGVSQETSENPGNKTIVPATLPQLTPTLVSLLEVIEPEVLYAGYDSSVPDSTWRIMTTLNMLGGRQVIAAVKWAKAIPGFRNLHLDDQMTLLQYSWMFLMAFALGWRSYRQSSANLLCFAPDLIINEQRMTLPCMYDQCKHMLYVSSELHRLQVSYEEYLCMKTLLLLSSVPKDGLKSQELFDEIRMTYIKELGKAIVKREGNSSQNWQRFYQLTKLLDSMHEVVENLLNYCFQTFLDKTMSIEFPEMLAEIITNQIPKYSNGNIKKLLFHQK
Experiment: Ability to induce human IL-6 assay in A549 lung carcinoma cell line.
Type: functional, cell-based
pEC50: −log10 of the molar value.

{"columns": ["Smiles code", "pEC50"],
 "data": [
  ["C[C@]12Cc3cnn(-c4ccc(F)cc4)c3C=C1CCC[C@@H]2[C@@H](O)c1ccccc1", 8.54],
  ["C[C@]12Cc3cnn(-c4ccc(F)cc4)c3C=C1CCC[C@@H]2[C@@H](O)c1ccc(Cl)cc1", 8.72],
  ["C[C@]12Cc3cnn(-c4ccc(F)cc4)c3C=C1CCC[C@@H]2[C@](C)(O)c1ccc(F)cc1", 8.66],
  ["C[C@]12Cc3cnn(-c4ccc(F)cc4)c3C=C1CCC[C@@H]2[C@@H](O)Cc1ccccc1", 7.86],
  ["C=CC[C@H](O)[C@H]1CCCC2=Cc3c(cnn3-c3ccc(F)cc3)C[C@@]21C", 8.03],
  ["C=CCC[C@H](O)[C@H]1CCCC2=Cc3c(cnn3-c3ccc(F)cc3)C[C@@]21C", 8.36],
  ["CC(C)(C)c1ccc(C[C@H](O)[C@H]2CCCC3=Cc4c(cnn4-c4ccc(F)cc4)C[C@@]32C)cc1", 7.62],
  ["C[C@]12Cc3cnn(-c4ccc(F)cc4)c3C=C1CCC[C@@H]2[C@@H](O)c1cccc(O)c1", 7.27]
]}

---

tested on: Mus musculus; experiment: Ability to induce mouse macrophage IL-6 assay in peritoneal exudate cells harvested by […] from C57BI/6 mice.; type: functional, cell-based
# reported EC50; entries follow
Measurement label: EC50 (nM)

{"columns": ["Smiles code", "Value reported"],
 "data": [
  ["C[C@]12Cc3cnn(-c4ccc(F)cc4)c3C=C1CCC[C@@H]2[C@@H](O)CCC1CC1", 26.3],
  ["C[C@]12Cc3cnn(-c4ccc(F)cc4)c3C=C1CCC[C@@H]2[C@@H](O)c1ccccc1F", 57.4],
  ["CC(C)(C)c1ccc(C[C@H](O)[C@H]2CCCC3=Cc4c(cnn4-c4ccc(F)cc4)C[C@@]32C)cc1", 86.5],
  ["COc1ccc(C[C@H](O)[C@H]2CCCC3=Cc4c(cnn4-c4ccc(F)cc4)C[C@@]32C)cc1", 66.6]
]}

---

target: Glucocorticoid receptor (Homo sapiens, UniProt P04150); test: Ability to induce human glutamine synthetase in skeletal muscle cells; assay type: cell-based
Please use 1 for EC50 under 70 nM and -1 for everything else, ties included.

{"columns": ["Smiles code", "Class name"],
 "data": [
  ["C=CC[C@H](O)[C@H]1CCCC2=Cc3c(cnn3-c3ccc(F)cc3)C[C@@]21C", 1],
  ["C[C@]12Cc3cnn(-c4ccc(F)cc4)c3C=C1CCC[C@@H]2[C@@H](O)Cc1ccc(F)cc1", 1],
  ["C[C@]12Cc3cnn(-c4ccc(F)cc4)c3C=C1CCC[C@@H]2[C@](C)(O)c1ccsc1", 1],
  ["C[C@]12Cc3cnn(-c4ccc(F)cc4)c3C=C1CCC[C@@H]2[C@](C)(O)c1ccc(F)cc1", -1],
  ["C[C@]12Cc3cnn(-c4ccc(F)cc4)c3C=C1CCC[C@@H]2[C@@H](O)CCC1CC1", 1],
  ["CC(C)(O)[C@H]1CCCC2=Cc3c(cnn3-c3ccc(F)cc3)C[C@@]21C", -1]
]}

---

molecular target: Glucocorticoid receptor (Homo sapiens); test: Binding affinity for human glucocorticoid receptor
pIC50: −log10 of the molar value.
# reported pIC50; entries follow
Measurement label: pIC50

{"columns": ["Smiles code", "Target", "Measurement label", "Value reported"],
 "data": [
  ["COc1cc([C@H](O)[C@H]2CCCC3=Cc4c(cnn4-c4ccc(F)cc4)C[C@@]32C)cc(F)c1F", "Glucocorticoid receptor (Homo sapiens)", "pIC50", 8.72],
  ["C[C@]12Cc3cnn(-c4ccc(F)cc4)c3C=C1CCC[C@@H]2[C@](C)(O)c1ccc(F)cc1", "Glucocorticoid receptor (Homo sapiens)", "pIC50", 8.60],
  ["C=CCC[C@H](O)[C@H]1CCCC2=Cc3c(cnn3-c3ccc(F)cc3)C[C@@]21C", "Glucocorticoid receptor (Homo sapiens)", "pIC50", 8.38],
  ["C[C@]12Cc3cnn(-c4ccc(F)cc4)c3C=C1CCC[C@@H]2[C@@H](O)c1ccccc1", "Glucocorticoid receptor (Homo sapiens)", "pIC50", 8.08]
]}
